Tested on: MLO-Y4 osteocytes
runDescription: High-throughput drug screening of primary cilia length and incidence
Format: cell-based
settings: 10 μM, 16 hours, triplicate; normalized to vehicle control; standard deviation away from the population average
Description: MLO-Y4 osteocytes were maintained on collagen I-coated dishes in MEMα (Life_Technologies) supplemented with 5% fetal bovine serum (FBS), 5% calf serum (CS), and 1% penicillin/streptomycin (P/S) at 37° C. and 5% CO2. Osteocytes were then seeded onto 384-well collagen-coated plates for 72 hours before fixation. […] Each pair of nuclei and cilia images was first analyzed individually, then the entire population was examined to evaluate each compound's effect on cilia length and incidence. […]
Counter-ions that a name gives are not always drawn.
Known Average Length SD Away of a selection of compounds
assayReadout: Average Length SD Away (SD)

INSERT INTO assay_data (compound, targetofassay, measuredresult) VALUES
  ('COc1ccc2cccc(N3CCN(CCNC(=O)c4ccc(F)cc4)CC3)c2c1.Cl [S 14506 hydrochloride]', 'MLO-Y4 osteocytes', 1.54),
  ('O=C([O-])c1ccccc1-c1c2cc(Br)c(=O)cc-2oc2[c]([Hg+])c([O-])c(Br)cc12.[Na+].[Na+].[OH-]', 'MLO-Y4 osteocytes', 5.067),
  ('Oc1ccc(OCc2ccccc2)cc1', 'MLO-Y4 osteocytes', 1.914),
  ('CN(Cc1cnc2nc(N)nc(N)c2n1)c1ccc(C(=O)N[C@@H](CCC(=O)O)C(=O)O)cc1 (racemic) [Amethopterin (RS)]', 'MLO-Y4 osteocytes', 2.927),
  ('COc1cc2c(cc1OC)[C@@H]1C(=O)c3ccc4c(c3O[C@@H]1CO2)C=CC(C)(C)O4 [DEGUELIN(−)]', 'MLO-Y4 osteocytes', 2.48),
  ('CC(=O)C(=Cc1ccccc1)CC(=O)O', 'MLO-Y4 osteocytes', 2.3613),
  ('CC[n+]1c(-c2ccccc2)c2cc(N)ccc2c2ccc(N)cc21 [HOMIDIUM BROMIDE]', 'MLO-Y4 osteocytes', 1.694),
  ('CC(=O)O[C@@H]1C[C@H]2C(C)(C)C(=O)C=C[C@]2(C)[C@H]2CC[C@]3(C)C(=CC(=O)O[C@H]3c3ccoc3)[C@@]21C', 'MLO-Y4 osteocytes', 2.161),
  ('O=c1[nH]c(=O)n([C@H]2C[C@H](O)[C@@H](CO)O2)cc1C(F)(F)F', 'MLO-Y4 osteocytes', 1.773),
  ('C[S+]([O-])c1ccc(-c2nc(-c3ccc(F)cc3)c(-c3ccncc3)[nH]2)cc1 (centres unmarked)', 'MLO-Y4 osteocytes', 1.797),
  ('O=C(O)c1nn(Cc2ccc(Cl)cc2Cl)c2ccccc12', 'MLO-Y4 osteocytes', 2.357),
  ('CCOC(=O)N1CCC(=C2c3ccc(Cl)cc3CCc3cccnc32)CC1', 'MLO-Y4 osteocytes', 2.261),
  ('CCN[C@H]1C[C@H](C)S(=O)(=O)c2sc(S(N)(=O)=O)cc21 [Dorzolamide HCL]', 'MLO-Y4 osteocytes', 2.205),
  ('CON [METHOXYAMINE HYDROCHLORIDE]', 'MLO-Y4 osteocytes', 1.91),
  ('O=c1[nH]c(=O)n([C@H]2C[C@H](O)[C@@H](CO)O2)cc1F', 'MLO-Y4 osteocytes', 1.672),
  ('O=C1C=C2C=C[C@@H]3C[C@@]2(O1)[C@H]1CCCCN31', 'MLO-Y4 osteocytes', 1.502),
  ('Cc1cc(NC(=O)Nc2ccc(N(C)C)cc2)c2cc(F)cc(F)c2n1', 'MLO-Y4 osteocytes', 2.398);
